I'd appreciate it if you could supply Kd values for the items below.
biological target: T1, human C-MET His tagged, monomeric (human, UniProt P08581 25-932); experiment: SPR Biacore, IgG captured, monomeric C-MET-His analyte
T1 construct: also called monomeric human C-MET; biotinylated human C-MET-His
T1 sequence (P08581 25-932): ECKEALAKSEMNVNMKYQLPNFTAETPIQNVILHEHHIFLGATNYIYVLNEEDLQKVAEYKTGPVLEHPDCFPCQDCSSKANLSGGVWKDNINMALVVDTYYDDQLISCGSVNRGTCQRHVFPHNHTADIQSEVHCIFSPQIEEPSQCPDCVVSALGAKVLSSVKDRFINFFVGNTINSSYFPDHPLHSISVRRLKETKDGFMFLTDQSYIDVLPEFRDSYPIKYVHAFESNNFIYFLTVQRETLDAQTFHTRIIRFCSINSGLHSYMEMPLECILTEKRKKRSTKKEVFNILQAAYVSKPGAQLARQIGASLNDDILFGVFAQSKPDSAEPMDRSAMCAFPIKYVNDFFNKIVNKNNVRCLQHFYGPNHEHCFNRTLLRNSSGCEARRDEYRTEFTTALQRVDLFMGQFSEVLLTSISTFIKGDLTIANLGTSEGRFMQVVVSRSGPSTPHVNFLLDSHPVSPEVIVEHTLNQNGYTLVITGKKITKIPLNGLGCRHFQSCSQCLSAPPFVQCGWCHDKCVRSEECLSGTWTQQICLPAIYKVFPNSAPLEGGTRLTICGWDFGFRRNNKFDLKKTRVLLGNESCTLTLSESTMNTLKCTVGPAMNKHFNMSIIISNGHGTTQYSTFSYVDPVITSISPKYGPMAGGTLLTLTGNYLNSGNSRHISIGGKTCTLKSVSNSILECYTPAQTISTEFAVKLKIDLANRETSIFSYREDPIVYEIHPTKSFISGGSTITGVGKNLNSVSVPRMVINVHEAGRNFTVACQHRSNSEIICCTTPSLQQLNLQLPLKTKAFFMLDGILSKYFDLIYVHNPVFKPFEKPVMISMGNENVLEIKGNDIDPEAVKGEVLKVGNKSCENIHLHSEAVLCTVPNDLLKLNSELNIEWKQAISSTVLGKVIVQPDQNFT
Express your answer as a number followed by its unit.

Prompt: Identify the reported Kd for the following entry. 09B08 (antibody, IgG4, V domains shown) VH: QVQLVQSGAEVKKPGASVKVSCKASGYTFTSYTMHWVRQAPGQGLEWMGWINPNNGSTNYAQKFQGRVTMTRDTSTSTVYMELSSLRSEDTAVYYCARSEITTDFDYWGQGTLVTVSS VL: EIVLTQSPGTLSLSPGERATLSCRASQSVSSYANSYLHWYQQKPGQAPRLLIYRGSTRESGIPDRFSGSGSGTDFTLTISRLEPEDFAVYYCQQSKSDPLTFGGGTKVEIK
Response: 1.1 nM

Prompt: Identify the reported Kd for the following entry. MH2 (antibody, IgG4, V domains shown) VH: QVQLVQSGAEVKKPGASVKVSCKASGYTFTSYTMHWVRQAPGQGLEWMGWINPNGGSTSYAQKFQGRVTMTRDTSTSTVYMELSSLRSEDTAVYYCARQEITTEFDYWGQGTLVTVSS VL: EIVLTQSPGTLSLSPGERATLSCRASQSVSSYAQSYLHWYQQKPGQAPRLLIYRGSTRETGIPDRFSGSGSGTDFTLTISRLEPEDFAVYYCQQSGSSPLTFGGGTKVEIK
Response: 2.5 nM
